# credit: patent EP4653443A1

- PROTOCOL TEXT: Metabolic stability in liver microsomes (mouse)
- Type: in vitro ADME
- MEASUREMENT PARAMETERS: Mouse, 60 min, first line of pair
The entries below are paired with their reported Residual Amount (%) 60 min.
QUANTITY KIND: Residual Amount (%) 60 min

MOLECULE: CN1CCN(c2ccc(OC(F)(F)F)c(Nc3ncc4c(n3)-c3c(c(C(N)=O)nn3CCO)CC4)c2)CC1 [NMS-P937, onvansertib, reference compound]
QUANTITY KIND: Residual Amount (%) 60 min
READOUT UNITS: %
VALUE OBSERVED: 53.17
--
MOLECULE: [2H]C1([2H])N(C)C([2H])([2H])C([2H])([2H])N(c2ccc(OC(F)(F)F)c(Nc3ncc4c(n3)-c3c(c(C(N)=O)nn3CCO)CC4)c2)C1([2H])[2H]
QUANTITY KIND: Residual Amount (%) 60 min
READOUT UNITS: %
VALUE OBSERVED: 57.01
--
MOLECULE: NC(=O)c1nn(CCO)c2c1CCc1cnc(Nc3cc(N4CCN5CCC[C@@H]5C4)ccc3OC(F)(F)F)nc1-2
QUANTITY KIND: Residual Amount (%) 60 min
READOUT UNITS: %
VALUE OBSERVED: 26.56
--
MOLECULE: O=C(O)Cc1ccccc1Nc1c(Cl)cccc1Cl [Diclofenac, reference compound]
QUANTITY KIND: Residual Amount (%) 60 min
READOUT UNITS: %
VALUE OBSERVED: 45.26
--
MOLECULE: [2H]C1([2H])CN(c2ccc(OC(F)(F)F)c(Nc3ncc4c(n3)-c3c(c(C(N)=O)nn3CCO)CC4)c2)C([2H])([2H])[C@H]2CCCN21
QUANTITY KIND: Residual Amount (%) 60 min
READOUT UNITS: %
VALUE OBSERVED: 26.56
